Exercise: for every item that follows, state its recorded Exp absolute binding affinity (ΔGbind).
Target: UniProt:P30542
Conditions: experimental, A1AR
Numbers only, in kcal/mol.

Look at each compound and report its Exp absolute binding affinity (ΔGbind).
1. CNc1nc(-c2ccccc2)c(C#N)c(-c2ccc(O)cc2)n1 [19z]
2. CNc1nc(-c2ccccc2)c(C#N)c(-c2cc(Cl)cc(Cl)c2)n1 [19aj]
3. CNc1nc(-c2ccccc2)c(C#N)c(-c2cccc(C#N)c2)n1 [19s]

Reply text:
1: -10.02; 2: -10.32; 3: -11.62

---

Target: human A1AR (Homo sapiens, UniProt P30542)
Sequence (P30542 1-326): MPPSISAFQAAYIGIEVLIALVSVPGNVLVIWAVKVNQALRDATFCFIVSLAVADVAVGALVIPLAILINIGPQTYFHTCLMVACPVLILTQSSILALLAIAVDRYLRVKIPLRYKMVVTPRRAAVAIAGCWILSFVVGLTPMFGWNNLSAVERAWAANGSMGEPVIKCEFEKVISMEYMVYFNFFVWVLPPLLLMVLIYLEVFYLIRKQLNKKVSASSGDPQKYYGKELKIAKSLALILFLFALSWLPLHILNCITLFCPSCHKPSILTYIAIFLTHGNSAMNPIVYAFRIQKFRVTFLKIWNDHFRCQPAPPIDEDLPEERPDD
Settings: experimental, A1AR
Property Label: Exp absolute binding affinity (ΔGbind) (kcal/mol)
Give bare numbers, in kcal/mol.

Examples with their reported Exp absolute binding affinity (ΔGbind) follow.
CNc1nc(-c2ccccc2)c(C#N)c(-c2ccc(F)cc2F)n1 [19af] :: -10.42
CNc1nc(-c2ccccc2)c(C#N)c(-c2ccsc2)n1 [19az] :: -10.05

Inquiry: For the molecule CNc1nc(-c2ccccc2)c(C#N)c(-c2ccccc2)n1 [19a] , give its measured Exp absolute binding affinity (ΔGbind) value.
Reply text: -10.96
